# testProtocol: DRG cytotoxicity assessment using LDH assay
# Assay type: cell-based, rat
# assayConditions: female, rat, rat dorsal root ganglion (DRG) explants, 500 µM, female rat DRG explant, single well
Structures can show the parent of a compound that is named as a salt.
quantity: cytotoxicity at 3 days, 500 µM (%)
A number alone suffices; assume %.

Q: Determine its reported cytotoxicity at 3 days, 500 µM: Cc1ncc(CO)c(CO)c1O [Pyr, Pyridoxine hydrochloride]
Result: 5.33

* * *

# testProtocol: DRG cytotoxicity assessment using LDH assay
# Type: cell-based, rat
# assayConditions: female, rat, rat dorsal root ganglion (DRG) explants, 0.77 µM, female rat DRG explant, single well
quantity: cytotoxicity at 3 days, 0.77 µM (%)
A number alone suffices; assume %.

Q: Determine its reported cytotoxicity at 3 days, 0.77 µM: C[C@H](CCC(=O)O)C[C@H](C)C[C@H](C)C(=O)/C=C(\O)[C@H](C)C[C@H](C)C/C=C/[C@@H](C)[C@@H](O)[C@@H](C)[C@@H](O)C[C@@H]1CC[C@@](C)([C@H]2CC[C@@](C)([C@@H](C)O)O2)O1
Result: 8.76
